Attribution: paper PMC10786891

target-system: T1, EsCas13d, nuclease-dead (Eubacterium siraeum, UniProt B0MS50, R295A;H300A;R849A;H854A)
T1 sequence: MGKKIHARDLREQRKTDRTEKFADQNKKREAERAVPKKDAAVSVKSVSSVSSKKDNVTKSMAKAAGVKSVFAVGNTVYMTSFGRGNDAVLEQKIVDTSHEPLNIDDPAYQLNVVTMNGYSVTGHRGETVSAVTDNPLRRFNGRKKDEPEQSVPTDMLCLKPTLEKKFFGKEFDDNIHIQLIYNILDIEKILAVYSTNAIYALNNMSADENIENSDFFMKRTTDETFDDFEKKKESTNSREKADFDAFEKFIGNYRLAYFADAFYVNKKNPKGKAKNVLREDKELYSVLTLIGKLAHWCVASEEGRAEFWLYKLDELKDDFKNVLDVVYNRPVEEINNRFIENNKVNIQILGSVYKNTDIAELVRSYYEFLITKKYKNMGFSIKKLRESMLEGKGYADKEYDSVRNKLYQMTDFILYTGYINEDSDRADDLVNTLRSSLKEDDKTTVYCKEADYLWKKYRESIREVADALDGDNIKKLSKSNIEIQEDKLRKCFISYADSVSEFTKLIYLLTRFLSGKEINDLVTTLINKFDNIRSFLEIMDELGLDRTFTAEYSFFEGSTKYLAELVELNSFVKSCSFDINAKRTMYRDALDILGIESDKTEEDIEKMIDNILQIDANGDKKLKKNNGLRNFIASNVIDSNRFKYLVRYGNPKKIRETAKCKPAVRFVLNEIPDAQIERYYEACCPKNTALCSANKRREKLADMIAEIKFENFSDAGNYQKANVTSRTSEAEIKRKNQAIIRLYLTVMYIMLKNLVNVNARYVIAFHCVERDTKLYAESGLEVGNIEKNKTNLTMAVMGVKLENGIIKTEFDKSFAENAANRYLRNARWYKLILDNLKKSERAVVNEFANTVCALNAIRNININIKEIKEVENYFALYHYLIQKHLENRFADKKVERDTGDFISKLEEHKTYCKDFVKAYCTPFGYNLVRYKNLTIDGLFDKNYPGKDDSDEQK
test-description: crRNA (strand 1, pre-loaded); Mg2+; 40 mM Tris-HCl pH 7.5, 150 mM NaCl, 6 mM MgCl2, 1 mM DTT, 0.1% Tween-20, 0.2 mg/ml BSA; 25 C; 10 min per concentration, then washed
condition-notes: tags: His6-TwinStrep-SUMO cleaved; N-terminal SNAP kept (SNAP-Surface 488); label: 3' end held by stalled T7 RNA polymerase
Below: a set of entries, each annotated with reported pKd.
Field pKd (float): negative decimal logarithm of the concentration in molar.

target 3 insU 3' of 5,insC 3' of 2 (mixed) RNA 1: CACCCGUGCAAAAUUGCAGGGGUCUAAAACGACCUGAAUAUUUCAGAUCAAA RNA 2: GGGAAUGGAUCCACAUCUACGAAUUCGUUUUUGAUCUGAAAUAUUCAUGGUCCUGCAGAUCGGAAGAGCACACGU ... 7.39

Suppose we examine the binder target 1 U8C,A16C (mixed) RNA 1: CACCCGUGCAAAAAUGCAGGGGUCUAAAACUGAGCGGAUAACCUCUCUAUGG RNA 2: GGGAAUGGAUCCACAUCUACGAAUUCGUACCAUAGCGAGGUUACCCGCUCACCGAGAUCGGAAGAGCACACGU ; what pKd value has been reported?
7.11
